assay: Pharmacokinetic parameters in rats; format: in vivo; details: male, SD, rat, plasma, iv, 20 mg/kg
QUANTITY KIND: AUC(0-t) (ng·h/mL)
One number for each entry, in ng·h/mL.

Reported AUC(0-t) for C=C1C(=O)[C@@]23C(C(=O)C[C@@H]1[C@H]2OC(=O)[C@@H](N)C(C)C)[C@]12CCCC(C)(C)C1C[C@H]3OC2=O (stereo partly shown) : what is it? 14800
